# TESTED TARGET: mTRPV2 channel (Mus musculus)
# Sequence (Q9WTR1 1-756): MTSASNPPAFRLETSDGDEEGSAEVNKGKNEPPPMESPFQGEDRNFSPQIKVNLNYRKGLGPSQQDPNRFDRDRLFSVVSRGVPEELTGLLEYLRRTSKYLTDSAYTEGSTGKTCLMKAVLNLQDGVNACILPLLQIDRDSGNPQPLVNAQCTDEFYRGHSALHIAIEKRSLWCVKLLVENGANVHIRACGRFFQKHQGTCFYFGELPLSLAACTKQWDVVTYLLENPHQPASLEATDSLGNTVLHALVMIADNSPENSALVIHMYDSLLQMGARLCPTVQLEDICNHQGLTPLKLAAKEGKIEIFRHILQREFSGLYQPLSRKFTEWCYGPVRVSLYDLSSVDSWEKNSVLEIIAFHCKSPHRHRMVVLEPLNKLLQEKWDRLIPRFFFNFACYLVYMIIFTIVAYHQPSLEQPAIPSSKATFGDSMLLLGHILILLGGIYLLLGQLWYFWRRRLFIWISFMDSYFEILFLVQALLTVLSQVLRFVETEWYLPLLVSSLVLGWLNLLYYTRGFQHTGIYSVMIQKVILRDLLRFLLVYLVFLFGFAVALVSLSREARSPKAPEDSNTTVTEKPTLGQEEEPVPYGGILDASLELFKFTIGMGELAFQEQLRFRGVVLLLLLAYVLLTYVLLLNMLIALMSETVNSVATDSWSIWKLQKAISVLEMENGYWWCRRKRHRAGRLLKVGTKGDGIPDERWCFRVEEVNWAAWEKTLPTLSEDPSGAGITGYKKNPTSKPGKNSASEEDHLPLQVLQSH
# TEST DETAILS: Whole-cell patch clamp of 2-APB-evoked mTRPV2 current in HEK293 cells
# ASSAY CONDITIONS: whole-cell patch clamp; 200 μM 2-APB, pH 6.5; read-out: IC50 for the ion current (mTRPV2 current)
METRIC: pIC50
pIC50 (log units): -log10 of the concentration in mol/L.

Task: Recorded pIC50 of CCN1C=CC(=CC=C(C=Cc2cc[n+](CC)c3ccccc23)c2cc[n+](CC)c3ccccc23)c2ccccc21.[I-].[I-] [lumin] , please.
Output: 5.30
